B1: tRNA (parent)
chain: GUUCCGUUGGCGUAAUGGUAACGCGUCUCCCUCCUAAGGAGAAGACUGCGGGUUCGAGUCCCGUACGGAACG

- Variants of: B1
- assay.remarks: yeast fitness relative to wild type (ratio to wild type); higher = fitter; tRNA-Arg(CCU), competitive growth, 37 C, YPD
Variants at the floor of the assay were thinned out.
Everything with yeast fitness lower than 0.6 is No; everything else, including exactly 0.6, is Yes.

[[record]]
biopolymer_sequence = "GUUCAGUUAGCGUAAUGGUAACGCAUCUCCCUCCUAAGGAGAAGACUGCGGGUUCGAGUCCCGUACGGUACG"
category = "No"

[[record]]
biopolymer_sequence = "GCUCCGUUGGCGUAAUGGUAACGCGUCUCGCUCCUAAGGAGAAGACUGCGGGUUCGAGUCUCGUACGAAACG"
category = "No"

[[record]]
biopolymer_sequence = "GUUCCGUUGACGUAUUGGUAACGCGUCUCCCUCCUGAGGAGAAGACGGCGGGUUCGAGUCCCGUUCGGAACG"
category = "No"

[[record]]
biopolymer_sequence = "GUUCCGUUGGCGUAAUGGUACCGCGUAUCCCUCCUAAGGAGAAGACUGCGGGUUCGAGUCCCGUACGGAACG"
category = "No"

[[record]]
biopolymer_sequence = "GUUUCGUAGGCGUAAUGGUAACGCGUCUCCCGCCAAAGGAGAAGACUGCGGGUUCGAGUCCUGUACGGCACG"
category = "No"

[[record]]
biopolymer_sequence = "GUUCCGUUGGCGUAAUGGUAACGCGUCUCCCUCCUAAGGAGAAGACUGCGGGUUCGUGUCCAGUACGGAACG"
category = "Yes"

[[record]]
biopolymer_sequence = "GUUCCGUAGGCGUAAUAGUAACGCGUCUCCCUCCUAAGGAGAAGACUGCGGGUUCGAGUCCGGUACGGAACG"
category = "No"

[[record]]
biopolymer_sequence = "GUUCCCUUGGCGUAAUGGUAACGCGUCUCCCUCCUACGGAGAAGACUGCGGGUUCGAGUCCAGUACGGCACG"
category = "No"

[[record]]
biopolymer_sequence = "GUUCCGUUGGCCUAAUGGUUGGGCGUCUCCCUCCUAAGGAGAAGACUGCAGGUUCGAGUCACGUACGGAACG"
category = "No"

[[record]]
biopolymer_sequence = "GUUCAGUUGGCGUAAUGGUAACGCGUCUCCCUCCUAAGGAGAAGACUGCGGGUUCGAGUUGCGUACGGAACG"
category = "No"

[[record]]
biopolymer_sequence = "GUUCCGUUGGCGUAAGGGUAACGCGUCUCCCUCCUAAGGAGAAGUCUGCAGGUUCGAGUCCCGUACGGCACG"
category = "Yes"

[[record]]
biopolymer_sequence = "GUUCCCUUGGCGUAAUGGUAACGCGUCUCCCUCCUAAGGACAAGACUGCGGGUUCGAGUCCUGUACGGAACG"
category = "No"

[[record]]
biopolymer_sequence = "GUUCCGUUGGCGUAAUGGUAACGCGACUCUUUCCUACGGAGAAGACUACGGGUUCGAGUCCCGUACGGAACG"
category = "No"

[[record]]
biopolymer_sequence = "GUUCCGUUGGCGUAAUGGUGAGGCGUCUCCCUCCUAAAGAGAAGACUGCGGGUUCGAGUCCCGUACGGAACG"
category = "No"

[[record]]
biopolymer_sequence = "GUUGCGUUGGCGUAAUGGUAAUGCGUCUCCCUCGUUAGGAGAAGACUGCGGGUUCGAGUCCCGUACAGAACG"
category = "No"

[[record]]
biopolymer_sequence = "GCUCCGUUGGCCUAAUGGUAACGCGUCUCCCUCCUAAGGAGAAGACUGCGGGUUCGAGUCCCGUACGGAACG"
category = "Yes"

[[record]]
biopolymer_sequence = "GUACCGUUGGCGUCAUGGUCACGCGUCUCCCUCCUAAGGAGAAGACUGCGGGUUCGAGUCCCGAACGGAACG"
category = "No"

[[record]]
biopolymer_sequence = "GUUACGAGGGCGUAAUGGUAACGCGUCUCCCUCCUAAGGAGAAGCCUGCGGGUUCGAGUCCCGUGGGGAACG"
category = "No"

[[record]]
biopolymer_sequence = "GUUCCGUUGGCGUAAUGGUAACACGACUCCCUCCUAAGGAGAAGACUGCCGGCUCGAGUCCCGUACGGAACG"
category = "No"

[[record]]
biopolymer_sequence = "GUUCCGCUGGCGUAAUGGUAACGGGUCUCCCUCCUAAGGAGAAGACUGCGGGUUCGAGUCCCGUACGGAACG"
category = "Yes"

[[record]]
biopolymer_sequence = "GUUCCGUUGGCGUAAUAGUAACGCGUCUCCCUCCUAAGGAGAAGACUGCGGGUUCGAGUCCCGUACGGGACG"
category = "Yes"

[[record]]
biopolymer_sequence = "GUUCCGUUGGCGUAAAGGUAUCGCGUCUCCCUGCUAAGGAGAAGACUGCGGGUUCGAGUCCCGUACGGAACG"
category = "No"

[[record]]
biopolymer_sequence = "GUUCCGUUGGCGUAAUGGUAACGCGUCACCCCCCUAAGCAGAAGACUGCGGGUUCGAGUCCCGUACGGAACG"
category = "No"

[[record]]
biopolymer_sequence = "GUUCCGUUGACGUAAUGGUACCGCGUCUCCCUCUUAAGGAGAAGACUGCGGGUUCGAGUCCCGUACGGAACG"
category = "No"

[[record]]
biopolymer_sequence = "GUGCCGUCGGCGUAUUGGUAACGCAUCUCCCUCCUAAGGAGAAGACUGAGGGUUCGAGUCCCGUACGGAACG"
category = "No"

[[record]]
biopolymer_sequence = "GUUCCGUUGGCGUAAUGGUAACGCGUCUCCCUCGUAGGGAGAAGACUGCGGGUUCGAGUCCAGUACGGAACG"
category = "No"

[[record]]
biopolymer_sequence = "GUUCCGUUGGCGUAAUGGUAACGCGUCUCCCUCCUAAGGGGAAGACUGCGGGUUCGAGUCCUGUCAGGAACG"
category = "No"

[[record]]
biopolymer_sequence = "GUUCCGUUGGCGUAAUGGUAACGCGUCUCCCUCCUAAGGAGAAGACUGCGGGUUCGAGUCCCGUGUGGAACG"
category = "Yes"

[[record]]
biopolymer_sequence = "GUUCCGUUGCCGUAAUGGUAACGCGUCUCCAUCCUAAGGAGAAGACUGCGGGUUCAAGUCCCGUGAGCAACG"
category = "No"

[[record]]
biopolymer_sequence = "GUUCCGUUGGCGUAAUGGUAACGCGUCUCCCUCCUAAGGAGAAGACUGCGGGUUCGGGUCCCGUACGGAACG"
category = "Yes"

[[record]]
biopolymer_sequence = "GUUCCGUUGGCGUAAUGGUAACGCGUCUCUCUCCUAAGGAGAAGUCUGCGGGUUCGAGUCCCGUACGGUACG"
category = "Yes"

[[record]]
biopolymer_sequence = "GUUCCGUUGGCGUAAUGGUAACGCGUCUCCCUCCUAAGGACAAGACUACGGGUUCGAGUCCCGUACGGAACG"
category = "Yes"

[[record]]
biopolymer_sequence = "GUUCCGUUGGCGUAAUGGUAACGCGACUCCCUCCUAAGGAGAAGACUGCGGGUUCAAGUCCCGUACGGAACG"
category = "Yes"

[[record]]
biopolymer_sequence = "GCUCCGUUGGCGUAAUGGUAAGGCGUCUCCCUCCUAAGGAGAAGACUGCGGGUUCGAGUCCCGUACGGAACG"
category = "Yes"

[[record]]
biopolymer_sequence = "GUUCCGUUGGCGUAAUGGUAACGCGUCUCCCACCUAAGGAGCAGACUGCGGGUUCGAGUCGCGUAGGGAACG"
category = "No"

[[record]]
biopolymer_sequence = "GUUUCGUUGGCGUAAUGGUAACCCGUCUCCCUCCUAAGGUGGAGACUGCGGGUUCGACUCCCGUACGGAACG"
category = "No"

[[record]]
biopolymer_sequence = "GUUCCGUUGGCGUAAUGGUAAUGCAUCUCCCUCCUAAGGAGAAGACUGCGGGUUCGAGUCCCGUACCGAACG"
category = "No"

[[record]]
biopolymer_sequence = "GUUCCGUUGGCAAAAUGGUAACGCGUCUCCCUCCUAGGGGGAAGACUGCGGGUUCGAGACCCGUACGGAACG"
category = "No"

